Where do the numbers come from? From ChEMBL document CHEMBL1128086.

- TESTED_SYSTEM: Thrombin and urokinase-type plasminogen activator (Homo sapiens) (UniProt P00734+P00749)
- ASSAY_NAME: Selectivity ratio of thrombin Kass to Urokinase Kass
- Format: protein assay

>  <COMPOUND>
NC(N)=NCCCNC(=O)[C@@H]1CCCN1C(=O)[C@H](N)Cc1ccccc1

>  <RELATION_OPERATOR>
=

>  <Ratio>
5600

$$$$
>  <COMPOUND>
CN[C@H](Cc1ccccc1)C(=O)N1CCC[C@H]1C(=O)NCCCCN=C(N)N

>  <RELATION_OPERATOR>
=

>  <Ratio>
13000

$$$$
>  <COMPOUND>
NC(N)=NCCC[C@@H](C=O)NC(=O)[C@@H]1CCCN1C(=O)[C@H](N)Cc1ccccc1

>  <RELATION_OPERATOR>
=

>  <Ratio>
13000

$$$$
>  <COMPOUND>
CN[C@H](Cc1ccccc1)C(=O)N1CCC[C@H]1C(=O)N[C@H](C=O)CCCNC(=N)N

>  <RELATION_OPERATOR>
=

>  <Ratio>
14000

$$$$
>  <COMPOUND>
NC(N)=NCCCCCNC(=O)[C@@H]1CCCN1C(=O)[C@H](N)Cc1ccccc1

>  <RELATION_OPERATOR>
>

>  <Ratio>
5200

$$$$
>  <COMPOUND>
NC(N)=NCCCCNC(=O)C1CCCN1C(=O)[C@H](N)Cc1ccccc1 (stereo partly specified)

>  <RELATION_OPERATOR>
=

>  <Ratio>
31000

$$$$
